TARGET_DESC: hERG potassium channel (Homo sapiens (Human))
Sequence (Q12809 whole entry): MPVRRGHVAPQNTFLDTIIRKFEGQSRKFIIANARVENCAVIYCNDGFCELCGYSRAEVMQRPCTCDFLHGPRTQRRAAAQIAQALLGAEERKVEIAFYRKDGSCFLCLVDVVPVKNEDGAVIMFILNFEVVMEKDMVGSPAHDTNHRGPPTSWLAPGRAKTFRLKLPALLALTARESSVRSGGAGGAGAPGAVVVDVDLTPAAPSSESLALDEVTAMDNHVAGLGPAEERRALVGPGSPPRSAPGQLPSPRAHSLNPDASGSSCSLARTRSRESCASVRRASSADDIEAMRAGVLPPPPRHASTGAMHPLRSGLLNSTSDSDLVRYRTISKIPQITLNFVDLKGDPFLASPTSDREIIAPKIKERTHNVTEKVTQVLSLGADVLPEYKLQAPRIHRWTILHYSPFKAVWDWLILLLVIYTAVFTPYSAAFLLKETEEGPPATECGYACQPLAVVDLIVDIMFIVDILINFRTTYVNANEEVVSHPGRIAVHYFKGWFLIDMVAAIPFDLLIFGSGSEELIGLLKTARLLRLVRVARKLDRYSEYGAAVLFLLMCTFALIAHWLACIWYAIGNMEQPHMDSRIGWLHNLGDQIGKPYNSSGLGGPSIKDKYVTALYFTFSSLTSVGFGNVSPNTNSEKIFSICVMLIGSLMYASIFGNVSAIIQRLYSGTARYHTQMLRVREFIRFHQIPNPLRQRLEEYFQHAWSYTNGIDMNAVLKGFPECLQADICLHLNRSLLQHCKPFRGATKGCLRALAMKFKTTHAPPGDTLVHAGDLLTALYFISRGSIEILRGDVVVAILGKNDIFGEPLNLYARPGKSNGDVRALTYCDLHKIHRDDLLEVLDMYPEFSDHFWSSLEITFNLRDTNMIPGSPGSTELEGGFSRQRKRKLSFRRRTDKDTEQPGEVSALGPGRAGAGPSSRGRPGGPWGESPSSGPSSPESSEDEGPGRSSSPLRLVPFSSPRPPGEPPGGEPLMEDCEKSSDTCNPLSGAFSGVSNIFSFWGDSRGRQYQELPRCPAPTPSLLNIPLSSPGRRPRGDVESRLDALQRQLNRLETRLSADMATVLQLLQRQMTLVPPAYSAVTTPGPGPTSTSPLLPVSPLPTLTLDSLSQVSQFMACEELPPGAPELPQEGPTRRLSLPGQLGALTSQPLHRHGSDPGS
ASSAY_NOTES: hERG potassium channel toxicity assay (hERG patch clamp)
Format: cell-based
PROTOCOL_CONDITIONS: hERG patch clamp
Experimental: Experimental method: hERG patch clamp detection method Experimental procedure: Compound preparation: the stock solution of a compound was diluted with extracellular fluid, 2 μL of the compound stock solution was added to 998 μL extracellular fluid, and then serially diluted 5 times in an extracellular fluid containing 0.2% DMSO to obtain the final concentration to be tested.
Listed molecules paired with reported IC50
READOUT_TYPE: IC50 (µM)

MOLECULE: Fc1cccc(-c2ccn3c(CC4CC4(F)F)nnc3c2Cl)c1 (stereo not drawn) [Compound 37]
SIGN: =
RESULT: 15
//
MOLECULE: Fc1cccc(-c2ccn3c(CC4CC4(F)F)nnc3c2)c1 (stereo not drawn) [Compound 11]
SIGN: >
RESULT: 40
//
MOLECULE: Cc1cc(F)ccc1-c1ccn2c(CC3CC3(F)F)nnc2c1Cl (stereo not drawn) [Compound 41]
SIGN: =
RESULT: 11.2
//
MOLECULE: FC1(F)CC1Cc1nnc2cc(-c3ccc4c(c3)CCO4)ccn12 (stereo not drawn) [Compound 31]
SIGN: >
RESULT: 40
//
MOLECULE: COc1ccc(-c2ccn3c(CC4CC4(F)F)nnc3c2)cc1F (stereo not drawn) [Compound 23]
SIGN: >
RESULT: 40
//
MOLECULE: CC(C)(O)c1ccc(-c2ccn3c(CC4CC4(F)F)nnc3c2)cc1 (stereo not drawn) [Compound 21]
SIGN: =
RESULT: 31.9
//
MOLECULE: Cc1cc(-c2ccn3c(CC4CC4(F)F)nnc3c2)ccc1F (stereo not drawn) [Compound 27]
SIGN: >
RESULT: 40
//
MOLECULE: FC1(F)CC1Cc1nnc2c(Cl)c(-c3ccc4c(c3)CCO4)ccn12 (stereo not drawn) [Compound 47]
SIGN: =
RESULT: 4.88
//
MOLECULE: Cc1cc(F)ccc1-c1ccn2c(CC3CC3(F)F)nnc2c1 (stereo not drawn) [Compound 26]
SIGN: >
RESULT: 40
//
MOLECULE: COc1ccc(-c2ccn3c(CC4CC4(F)F)nnc3c2Cl)cc1F (stereo not drawn) [Compound 44]
SIGN: =
RESULT: 16.1
//
MOLECULE: Fc1ccc(-c2ccn3c(CC4CC4(F)F)nnc3c2)cc1 (stereo not drawn) [Compound 13]
SIGN: =
RESULT: 31.9
//
MOLECULE: FC1(F)CC1Cc1nnc2cc(-c3cccc4cccnc34)ccn12 (stereo not drawn) [Compound 34]
SIGN: >
RESULT: 40
//
MOLECULE: Cc1cccc(-c2ccn3c(CC4CC4(F)F)nnc3c2)c1 (stereo not drawn) [Compound 10]
SIGN: >
RESULT: 40
//
MOLECULE: COC(=O)c1ccc(-c2ccn3c(CC4CC4(F)F)nnc3c2)c(F)c1 (stereo not drawn) [Compound 29]
SIGN: =
RESULT: 17.3
//
MOLECULE: FC1(F)CC1Cc1nnc2cc(-c3cccc4c3OCC4)ccn12 (stereo not drawn) [Compound 32]
SIGN: >
RESULT: 40
//
MOLECULE: COC(=O)c1ccc(-c2ccn3c(CC4CC4(F)F)nnc3c2Cl)c(Cl)c1 (stereo not drawn) [Compound 46]
SIGN: =
RESULT: 10.8
//
MOLECULE: Cc1cccc(-c2ccn3c(CC4CC4(F)F)nnc3c2Cl)c1 (stereo not drawn) [Compound 36]
SIGN: >
RESULT: 40
//
MOLECULE: FC1(F)CC1Cc1nnc2cc(-c3ccc4c(c3)OCO4)ccn12 (stereo not drawn) [Compound 35]
SIGN: >
RESULT: 40
